// data source = ChEMBL document CHEMBL5338795

experiment: Clearance in Sprague-Dawley rat at 2 mg/kg, iv measured at 0.08 to 24 hrs by LC-MS/MS analysis; assay type: ADME, organism-based; conditions: in vivo, time 0.08-24 hrs
quantityName: clearance (mL/min/kg)
Entry rule: numbers only, all in mL/min/kg.

For reference, reported clearance for O[C@@](CN1CCN(CCn2ccc3cc(Br)ccc32)CC1)(Cn1cncn1)c1ccc(F)cc1F stands at 26.7

----------
We begin with a simple list: items and their reported MIC80.
test system: Candida albicans; experiment: Antifungal activity against Candida albicans SC5314 assessed as reduction in fungal growth incubated for 24 hrs by CLSI based microdilution analysis; type: functional
Entry rule: numbers only, all in µg/mL.

For reference, reported MIC80 for Cc1ccc2c(ccn2CCCN2CCN(CC(O)(Cn3cncn3)c3ccc(F)cc3F)CC2)c1 (centres undefined) stands at 0.062

Further cases:
For reference, reported MIC80 for O=[N+]([O-])c1ccc2c(ccn2CCN2CCN(CC(O)(Cn3cncn3)c3ccc(F)cc3F)CC2)c1 (centres undefined) stands at 0.031

For reference, reported MIC80 for OC(CN1CCN(CCOc2ccc3c(c2)OCO3)CC1)(Cn1cncn1)c1ccc(F)cc1F (centres undefined) stands at 0.125

For reference, reported MIC80 for COc1ccc2c(ccn2CCCCCCCCCCN2CCN(CC(O)(Cn3cncn3)c3ccc(F)cc3F)CC2)c1 (centres undefined) stands at 0.5
